- System: 521955-158-R2-J5-PDC complex spheroid viability;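 note: spheroids exposed to agents for one week before reading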
- TEST_METHOD_NOTES: Anticancer human tumor 521955-158-R2-J5-PDC patient-derived pancreatic carcinoma cell line growth inhibition [GQUAD]; active = viability on the fitted dose curve at most 10% of control; inactive = the rest
- CONDITIONS_USED: second compound 1 µM; first compound 0.316 µM
Can you answer with just one of these options? active, inactive

Some solved entries appear below for comparison.
For this molecule, state the assay outcome: CC(C)(O)C1CCC(Nc2ccc3ncc(-c4cccc(C(F)(F)F)c4)n3n2)CC1 (stereo unspecified) + Cc1[nH]c2ccc(F)cc2c1-c1nc2c3cccnc3c3ncccc3c2[nH]1
inactive

For this molecule, state the assay outcome: C#Cc1c(F)ccc2cc(O)cc(-c3ncc4c(N5CC6CCC(C5)N6)nc(OCC56CCCN5CC(F)C6)nc4c3F)c12 (stereo unspecified) + CN(C)c1ccc(Nc2c3ccc(NC(=O)CCN4CCCC4)cc3nc3cc(NC(=O)CCN4CCCC4)ccc23)cc1
inactive

For this molecule, state the assay outcome: COc1ccc([C@@H](O)c2cc(-c3ncnc4cc(N5CCOCC5)ccc34)c(F)cc2Cl)nn1 + CN(C)c1ccc(Nc2c3ccc(NC(=O)CCN4CCCC4)cc3nc3cc(NC(=O)CCN4CCCC4)ccc23)cc1
inactive

For this molecule, state the assay outcome: CC[C@@]1(O)C(=O)OCc2c1cc1n(c2=O)Cc2cc3c(CN(C)C)c(O)ccc3nc2-1 + Cc1[nH]c2ccc(F)cc2c1-c1nc2c3cccnc3c3ncccc3c2[nH]1
active

For this molecule, state the assay outcome: C#Cc1c(F)ccc2cc(O)cc(-c3ncc4c(N5CC6CCC(C5)N6)nc(OCC56CCCN5CC(F)C6)nc4c3F)c12 (stereo unspecified) + Cc1cnc(CNC(=O)c2c(=O)c3ccc(N4CCCN(C)CC4)nc3n3c2sc2ccccc23)cn1
inactive

Proceed to the following item.
For this molecule, state the assay outcome: Cc1cccc(N(C)C(=O)C2C(O)CCN2c2nc(C)cc(C(F)(F)F)c2C#N)c1 (stereo unspecified) + CN(C)c1ccc(Nc2c3ccc(NC(=O)CCN4CCCC4)cc3nc3cc(NC(=O)CCN4CCCC4)ccc23)cc1
inactive

Sourced from PubChem BioAssay AID2060495
